Below: a set of entries, each annotated with reported growth.
# System: MALME-3M melanoma
# assay_notes: NCI-60 one-dose screen, 48 h (100 = growth as untreated, 0 = no growth, -100 = all killed)
# reported_conditions: 10 µM unless noted
# Description: Cells are grown in 96 well plates and exposed to the test compound for 48 hours. Compounds are tested at a single concentration, which is 10^-5 M for most compounds. The reported endpoint is percent growth (GI% or GIPRCNT), where numbers from 0 - 100% represent growth inhibition, and numbers from -100% - 0 represent cell death. For example, a value of 40 represents 60% growth inhibition. A value of 0 means no net growth occurred over the course of the experiment. […]
Compounds without any hit were thinned out: in the full panel of roughly 83,000, 20% have a hit.

[
  {
    "molecule": "CCC(C)(C)c1ccc(OCCCCCCN2CCN(c3ccc(C)c(Cl)c3)CC2)cc1",
    "growth (%)": 86.7
  },
  {
    "molecule": "CCCCCCCCCC(C)NC(=O)CCl (stereo unspecified)",
    "growth (%)": 93.8
  },
  {
    "molecule": "Nc1ccc(S(=O)(=O)c2ccc(NO)cc2)cc1",
    "growth (%)": 144
  },
  {
    "molecule": "CCOC(=O)C1=C(C(F)(F)F)NC(=O)NC1CN1C(=O)c2ccccc2C1=O (stereo unspecified)",
    "growth (%)": 113
  },
  {
    "molecule": "Cc1ccc(C(=O)NN)cc1",
    "growth (%)": 117
  },
  {
    "molecule": "O=C(Nn1cnc2ccccc21)N1CCCC1",
    "growth (%)": 92.2
  },
  {
    "molecule": "O=C(O)c1ccc(-c2nn(-c3ccc(C(=O)O)cc3)cc2CNc2ccc(Br)cc2)cc1",
    "growth (%)": 106
  },
  {
    "molecule": "CCCOC(=O)c1c(C)n(C)c2scc[n+]12",
    "growth (%)": 92.5
  },
  {
    "molecule": "CC1(C)NC(=S)NC1=O",
    "growth (%)": 106
  },
  {
    "molecule": "CC(C)OC(=O)[C@H](C)N[P@@](=O)(OC[C@@]1(C)O[C@@H](n2cc(F)c(N)nc2=O)C[C@@H]1O[P@](=O)(N[C@@H](C)C(=O)OC(C)C)Oc1ccccc1)Oc1ccccc1",
    "growth (%)": 91.1
  },
  {
    "molecule": "CC(=O)Nc1ccc(CC#N)cc1Br",
    "growth (%)": 101
  }
]

###

# Tested on: CAKI-1 renal
# assay_notes: NCI-60 one-dose screen, 48 h
# reported_conditions: 10 µM unless noted
This is part of a sample that, as a whole, favours compounds with a hit. Of some 83,000 tested, about 20% had one in any assay. Calls of active or inactive are those of the source. How the source made its calls: active means growth percent below 10; inactive means the rest.
Classes used: yes (1) for active, no (0) for inactive

[
  {
    "compound": "COc1ccc(-c2cc(C#N)c(NNC(C)=O)[nH]2)cc1",
    "class_assignment": "no (0)"
  },
  {
    "compound": "CCCC(=O)NNc1[nH]c(-c2ccc(OC)cc2)cc1C(=O)OCC",
    "class_assignment": "no (0)"
  },
  {
    "compound": "CCOC(=O)C1=C(C(F)(F)F)NC(=O)NC1CN1C(=O)c2ccccc2C1=O (configuration not stated)",
    "class_assignment": "no (0)"
  },
  {
    "compound": "COc1ccc(Cn2cc3c(c2)-c2oncc2CC3)cc1OC",
    "class_assignment": "no (0)"
  },
  {
    "compound": "N#CCCCCCCCCCCC#N",
    "class_assignment": "no (0)"
  },
  {
    "compound": "CCN(CC)CCOC(=O)c1cccnc1",
    "class_assignment": "no (0)"
  },
  {
    "compound": "O=C(CCl)c1ccc2c(c1)CCCC2",
    "class_assignment": "no (0)"
  },
  {
    "compound": "COc1cc(OC)cc(-c2ccc(-c3ccc(C(=N)N)cc3)s2)c1",
    "class_assignment": "yes (1)"
  },
  {
    "compound": "CCC(C)(C)c1ccc(OCCCCCCN2CCN(c3ccc(C)c(Cl)c3)CC2)cc1",
    "class_assignment": "no (0)"
  },
  {
    "compound": "COc1cccc(Cn2cc3c(c2)-c2oncc2CC3)c1",
    "class_assignment": "no (0)"
  },
  {
    "compound": "CCN(CC)CCNc1ncnc2c1cnn2-c1ccc(Cl)cc1",
    "class_assignment": "no (0)"
  },
  {
    "compound": "NC(=O)CC(NC(=O)COc1ccc(Cl)cc1Cl)C(=O)O (configuration not stated)",
    "class_assignment": "no (0)"
  },
  {
    "compound": "COC(=O)/C=C/c1cc(O)c2oc(-c3ccc(O)c(O)c3)c(C(=O)OC)c2c1",
    "class_assignment": "no (0)"
  },
  {
    "compound": "Nc1ccc(S(=O)(=O)c2ccc(NO)cc2)cc1",
    "class_assignment": "no (0)"
  },
  {
    "compound": "CC1Cc2cc(F)ccc2-n2cccc21 (configuration not stated)",
    "class_assignment": "no (0)"
  },
  {
    "compound": "COc1cc(C(=O)Nc2ccc(N(C)C)cc2)cc(OC)c1OC",
    "class_assignment": "no (0)"
  },
  {
    "compound": "CCN(CC)CCCC(C)Nc1c(C)cnc2cc(Cl)c(C)cc12 (configuration not stated)",
    "class_assignment": "no (0)"
  },
  {
    "compound": "COc1cc(-c2nc(/C=C3/C(=O)Nc4ccccc43)c3ccccn23)cc(OC)c1OC",
    "class_assignment": "no (0)"
  },
  {
    "compound": "CCOC(=O)c1ccc2n1CCCc1cnc(NC(C)=O)nc1-2",
    "class_assignment": "no (0)"
  },
  {
    "compound": "Cc1ccccc1-n1c(C)nc2cc(NC(=O)c3ccc(Cl)cc3)ccc2c1=O",
    "class_assignment": "no (0)"
  },
  {
    "compound": "COc1ccc2nc3cc(Cl)ccc3c(NCCCNC(C)=O)c2c1",
    "class_assignment": "no (0)"
  },
  {
    "compound": "COc1cc(-c2nn(-c3ccc(NC(=O)Nc4ccc(Cl)c(C(F)(F)F)c4)cc3)cc2-c2ccncc2)ccc1Cl",
    "class_assignment": "yes (1)"
  },
  {
    "compound": "CCC(C)C1NC(=O)C(CC(C)C)NC(=O)C(C)NC(=O)C(C(C)C)NC(=O)C(CCCCN)NC(=O)C(CC(C)C)NC(=O)C(C(C)C)NC(=O)[C@H](C)NC(=O)C(C(C)CC)NC(=O)C(CCCN=C(N)N)NC(=O)C(CCCCN)NC(=O)C(CCCN=C(N)N)NC(=O)C(CCCCN)NC(=O)C([C@H](C)CC)NC(=O)C(CCCCN)NC1=O (some centres not stated)",
    "class_assignment": "yes (1)"
  },
  {
    "compound": "CCCCCCCCCCCCCCCCC(=O)O.CCCCCCCCCCCCCCCCCC(=O)O.CCCCCCCCCCCCCCCCCC(=O)O.CCCCCCCCCCCCCCCCCC(=O)O.CCCCCCCCCCCCCCCCCC(=O)O.CO[CH-]OC12COC1CC(O)C1(C)C(O)C(OC(C)O)C3=C(C)C(OC(=O)C(O)C([NH-])c4ccccc4)CC(O)(C(OC(=O)c4ccccc4)C21)C3(C)C.[Cu+].[Zn].[Zn].[Zn].[Zn].[Zn] (configuration not stated)",
    "class_assignment": "no (0)"
  },
  {
    "compound": "Oc1ccc(CN(Cc2ccc(C(F)(F)F)cc2)Cc2ccc(O)c3ncccc23)c2cccnc12",
    "class_assignment": "yes (1)"
  },
  {
    "compound": "CC(=O)OC1CC2C3CCC4C[C@@H](NC(=O)C=C(C)C)CC[C@]4(C)C3CC[C@]2(C)[C@H]1C(C)N(C)C (some centres not stated)",
    "class_assignment": "yes (1)"
  },
  {
    "compound": "COc1ccc(Oc2[nH]n(C3=Nc4ccccc4Sc4ccccc43)c(=O)c2C#N)cc1",
    "class_assignment": "no (0)"
  },
  {
    "compound": "CCOC(=O)c1cc(C(=O)c2ccc(Br)cc2)n2cc(C)cc(C)c12",
    "class_assignment": "no (0)"
  },
  {
    "compound": "CC(=O)N1CCN(CCNC(=O)n2cc(-c3ccncc3)c(-c3cc(O)cc(Cl)c3)n2)CC1",
    "class_assignment": "no (0)"
  },
  {
    "compound": "Cc1ccc2c(O)c(O)cc(NC(C)CCCN)c2n1 (configuration not stated)",
    "class_assignment": "no (0)"
  },
  {
    "compound": "O=CN/N=C/c1ccc(Cl)c([N+](=O)[O-])c1",
    "class_assignment": "no (0)"
  },
  {
    "compound": "CCC(C)[C@H](NC(=O)Nc1cc(C(F)(F)F)cc(C(F)(F)F)c1)C(=O)N[C@@H](Cc1cn(C)cn1)C(=O)OC (some centres not stated)",
    "class_assignment": "yes (1)"
  },
  {
    "compound": "COc1cc(OC)c2c(=O)cc(-c3ccccc3)oc2c1",
    "class_assignment": "no (0)"
  },
  {
    "compound": "C/C=C/C/C=C/[C@H](C)C[C@H](O)[C@@H]1C[C@@H]2O[C@H]2/C=C/[C@@H]2OC(C)(C)O[C@H]2/C=C/C[C@H](C)CC(=O)O1",
    "class_assignment": "no (0)"
  },
  {
    "compound": "O=C(/C(Br)=C/c1ccccc1)c1ccccc1",
    "class_assignment": "yes (1)"
  },
  {
    "compound": "CCCCCCCCc1ccc(OCCOCC[N+](C)(C)CC)cc1 (tested in a mixture with another compound)",
    "class_assignment": "no (0)"
  },
  {
    "compound": "O=C(/C=C/c1ccc(Cl)cc1)c1ccc(Cl)cc1",
    "class_assignment": "no (0)"
  }
]
